Values were extracted from paper PMC3495945.

measurement target: human progesterone receptor B (PR-B) (Homo sapiens)
Sequence (P06401 1-933): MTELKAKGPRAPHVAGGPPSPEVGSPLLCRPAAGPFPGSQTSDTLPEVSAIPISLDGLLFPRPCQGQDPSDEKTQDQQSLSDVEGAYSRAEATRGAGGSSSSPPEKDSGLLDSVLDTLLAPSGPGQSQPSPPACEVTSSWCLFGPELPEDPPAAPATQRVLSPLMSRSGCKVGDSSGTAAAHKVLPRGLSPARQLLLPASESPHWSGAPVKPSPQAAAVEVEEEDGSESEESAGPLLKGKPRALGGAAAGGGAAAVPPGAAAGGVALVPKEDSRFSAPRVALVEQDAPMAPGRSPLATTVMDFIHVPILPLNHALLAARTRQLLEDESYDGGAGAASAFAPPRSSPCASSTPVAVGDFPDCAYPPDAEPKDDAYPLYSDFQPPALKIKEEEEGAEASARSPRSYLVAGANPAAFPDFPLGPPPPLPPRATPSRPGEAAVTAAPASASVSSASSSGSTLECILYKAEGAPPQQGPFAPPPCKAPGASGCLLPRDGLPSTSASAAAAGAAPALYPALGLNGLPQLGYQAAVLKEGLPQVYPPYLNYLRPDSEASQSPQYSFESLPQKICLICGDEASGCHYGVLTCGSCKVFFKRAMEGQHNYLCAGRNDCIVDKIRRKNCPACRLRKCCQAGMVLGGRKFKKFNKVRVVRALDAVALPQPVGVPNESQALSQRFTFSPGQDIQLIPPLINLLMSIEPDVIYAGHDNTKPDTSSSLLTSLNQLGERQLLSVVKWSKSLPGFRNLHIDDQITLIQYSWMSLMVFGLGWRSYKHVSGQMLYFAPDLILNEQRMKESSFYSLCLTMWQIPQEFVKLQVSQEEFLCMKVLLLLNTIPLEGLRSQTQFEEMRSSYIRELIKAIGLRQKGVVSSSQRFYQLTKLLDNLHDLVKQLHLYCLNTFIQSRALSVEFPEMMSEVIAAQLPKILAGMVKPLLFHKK
procedure summary: CHO steroid receptor reporter assay, PR-B / MMTV-Luc
conditions used: mean (±SD), read-out: IC50 (antagonist)
pIC50: −log10 of the molar value.
quantity name: pIC50

>>> observed("Cc1nnsc1C(=O)N[C@H]1CCN2c3ccc(C#N)cc3[C@@H](C)c3ccccc3[C@@H]2C1")
7.71

###

measurement target: human chimeric glucocorticoid-mineralocorticoid receptor (GGM) (Homo sapiens, UniProt P04150+P08235, G607S/G671E/L660Y/Q661R/V618L)
Construct: glucocorticoid receptor part of the chimera (human NR3C1, P04150)
Sequence (P04150+P08235 fused with the stated changes): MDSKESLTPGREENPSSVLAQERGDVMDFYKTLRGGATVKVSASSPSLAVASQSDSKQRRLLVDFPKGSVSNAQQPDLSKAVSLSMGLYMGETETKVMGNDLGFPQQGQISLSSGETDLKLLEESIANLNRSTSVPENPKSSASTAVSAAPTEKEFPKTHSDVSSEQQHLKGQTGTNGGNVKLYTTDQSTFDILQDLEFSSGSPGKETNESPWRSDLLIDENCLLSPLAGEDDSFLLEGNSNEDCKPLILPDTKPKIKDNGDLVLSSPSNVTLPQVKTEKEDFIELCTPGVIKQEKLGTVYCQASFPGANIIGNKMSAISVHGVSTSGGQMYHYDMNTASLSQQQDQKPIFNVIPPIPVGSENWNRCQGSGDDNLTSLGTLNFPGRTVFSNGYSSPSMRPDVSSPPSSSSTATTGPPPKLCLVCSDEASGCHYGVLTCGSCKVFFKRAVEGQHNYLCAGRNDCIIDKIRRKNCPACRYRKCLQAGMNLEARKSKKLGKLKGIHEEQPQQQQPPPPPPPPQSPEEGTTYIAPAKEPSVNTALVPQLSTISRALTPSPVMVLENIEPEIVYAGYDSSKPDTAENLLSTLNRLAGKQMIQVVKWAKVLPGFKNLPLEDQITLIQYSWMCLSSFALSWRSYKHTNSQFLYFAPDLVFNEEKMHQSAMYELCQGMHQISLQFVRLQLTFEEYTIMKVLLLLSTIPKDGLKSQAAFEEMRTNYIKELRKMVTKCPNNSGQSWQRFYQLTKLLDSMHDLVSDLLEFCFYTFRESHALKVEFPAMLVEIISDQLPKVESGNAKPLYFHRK
procedure summary: CHO steroid receptor reporter assay, MR (GGM) / MMTV-Luc
conditions used: read-out: IC50 (antagonist)
quantity name: IC50

>>> observed("Cc1nnsc1C(=O)N[C@H]1CCN2c3ccc(C#N)cc3[C@@H](C)c3ccccc3[C@@H]2C1")
"> 1.26 µM"

###

procedure summary: Pharmacokinetics in mice
Format: in vivo, mouse
conditions used: female, Balb/c, mouse, in vivo, iv, 4 umol/kg; 4 μmol/kg i.v.
quantity name: AUC(0-inf) (µM·h)

>>> observed("Cc1nnsc1C(=O)N[C@H]1CCN2c3ccc(C#N)cc3[C@@H](C)c3ccccc3[C@@H]2C1")
10.8

###

procedure summary: Pharmacokinetics in mice
Type: in vivo, mouse
conditions used: female, Balb/c, mouse, in vivo, po, 10 umol/kg; 10 μmol/kg p.o.
quantity name: MRT inf (h)

>>> observed("Cc1nnsc1C(=O)N[C@H]1CCN2c3ccc(C#N)cc3[C@@H](C)c3ccccc3[C@@H]2C1")
7.1

###

procedure summary: Pharmacokinetics in mice
Assay type: in vivo, mouse
conditions used: female, Balb/c, mouse, in vivo, iv, 4 umol/kg; 4 μmol/kg i.v.
quantity name: MRT inf (h)

>>> observed("Cc1nnsc1C(=O)N[C@H]1CCN2c3ccc(C#N)cc3[C@@H](C)c3ccccc3[C@@H]2C1")
7.9

###

procedure summary: Pharmacokinetics in mice
Format: in vivo, mouse
conditions used: mouse, in vivo, po, 20 umol/kg; 20 μmol/kg p.o., female Balb/c mice
quantity name: Tmax (min)

>>> observed("C[C@]12C=CC(=O)C=C1CC[C@@H]1[C@@H]2[C@@H](O)C[C@@]2(C)[C@H]1CC[C@]2(O)C(=O)CO [prednisolone, reference compound]")
18

###

procedure summary: Pharmacokinetics in mice
Assay type: in vivo, mouse
conditions used: female, Balb/c, mouse, in vivo, po, 20 umol/kg; 20 μmol/kg p.o.; read-out: T1/2 eli (converted)
quantity name: half-life

>>> observed("C[C@]12C=CC(=O)C=C1CC[C@@H]1[C@@H]2[C@@H](O)C[C@@]2(C)[C@H]1CC[C@]2(O)C(=O)CO [prednisolone, reference compound]")
"24 min"

###

procedure summary: Pharmacokinetics in mice
Format: in vivo, mouse
conditions used: female, Balb/c, mouse, in vivo, iv, 10 umol/kg; 10 μmol/kg i.v.
quantity name: AUC(0-inf) (µM·h)

>>> observed("C[C@]12C=CC(=O)C=C1CC[C@@H]1[C@@H]2[C@@H](O)C[C@@]2(C)[C@H]1CC[C@]2(O)C(=O)CO [prednisolone, reference compound]")
7.1

###

procedure summary: Pharmacokinetics in mice
Type: in vivo, mouse
conditions used: female, Balb/c, mouse, in vivo, iv; 4 μmol/kg i.v.; extrapolated to T=0; read-out: Cmax
quantity name: C0 (nM)

>>> observed("Cc1nnsc1C(=O)N[C@H]1CCN2c3ccc(C#N)cc3[C@@H](C)c3ccccc3[C@@H]2C1")
2190

###

procedure summary: Pharmacokinetics in mice
Type: in vivo, mouse
conditions used: female, Balb/c, mouse, in vivo, po, 20 umol/kg; 20 μmol/kg p.o.
quantity name: MRT inf (min)

>>> observed("C[C@]12C=CC(=O)C=C1CC[C@@H]1[C@@H]2[C@@H](O)C[C@@]2(C)[C@H]1CC[C@]2(O)C(=O)CO [prednisolone, reference compound]")
48

###

measurement target: recombinant human glucocorticoid receptor (GR) (Homo sapiens, UniProt P04150)
procedure summary: Glucocorticoid receptor fluorescence polarisation competitor binding assay
conditions used: fluorescence polarization competitor binding; mean (±SD); read-out: Ki, competitive binding
pKi: −log10 of the molar value.
quantity name: pKi

>>> observed("Cc1nnsc1C(=O)N[C@H]1CCN2c3ccc(C#N)cc3[C@@H](C)c3ccccc3[C@@H]2C1 [Org 214007-0]")
8.66

###

measurement target: His-GR-LBD (F602S mutated) (Homo sapiens, UniProt P04150, F602S)
Construct: E. coli produced His-GR-LBD (F602S mutated) at 10 nM
Sequence (P04150 524-758 F602S limits assumed): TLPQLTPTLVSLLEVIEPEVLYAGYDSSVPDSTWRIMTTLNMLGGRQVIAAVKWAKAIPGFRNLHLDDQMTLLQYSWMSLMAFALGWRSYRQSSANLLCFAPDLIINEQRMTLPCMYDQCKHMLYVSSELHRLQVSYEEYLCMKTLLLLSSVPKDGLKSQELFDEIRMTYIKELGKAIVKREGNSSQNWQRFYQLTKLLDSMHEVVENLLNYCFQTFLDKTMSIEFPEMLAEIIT
procedure summary: Co-factor-peptide (TIF2-3) recruitment assay
conditions used: 0.1 μM peptide; read-out: EC50 (%CV), recruitment of TIF2-3 peptide
pEC50: −log10 of the molar value.
quantity name: pEC50

>>> observed("Cc1nnsc1C(=O)N[C@H]1CCN2c3ccc(C#N)cc3[C@@H](C)c3ccccc3[C@@H]2C1 [Org 214007-0]")
8.00

###

measurement target: human estrogen receptor alpha (ERα) (Homo sapiens, UniProt P03372)
Construct: expressed in transfected cells; host or cells: CHO K1
procedure summary: CHO steroid receptor reporter assay, ERα / rat oxytocin-Luc
Format: cell-based
conditions used: read-out: EC50 (agonist)
quantity name: EC50

>>> observed("Cc1nnsc1C(=O)N[C@H]1CCN2c3ccc(C#N)cc3[C@@H](C)c3ccccc3[C@@H]2C1 [Org 214007-0]")
"> 100 nM"

###

procedure summary: Pharmacokinetics in mice
Assay type: in vivo, mouse
conditions used: female, Balb/c, mouse, in vivo, po, 20 umol/kg; 20 μmol/kg p.o.
quantity name: Cmax (µM)

>>> observed("C[C@]12C=CC(=O)C=C1CC[C@@H]1[C@@H]2[C@@H](O)C[C@@]2(C)[C@H]1CC[C@]2(O)C(=O)CO [prednisolone, reference compound]")
11.5

###

measurement target: GR (Homo sapiens)
procedure summary: U2OS GR.G9 IFNγ/TNFα-induced MCP-1 release (repression)
conditions used: IFNγ (100 ng/ml)/TNFα (50 ng/ml), 18 hours
quantity name: IC50 (nM)

>>> observed("Cc1nnsc1C(=O)N[C@H]1CCN2c3ccc(C#N)cc3[C@@H](C)c3ccccc3[C@@H]2C1")
0.36

###

procedure summary: Pharmacokinetics in mice
Assay type: in vivo, mouse
conditions used: female, Balb/c, mouse, in vivo, iv, 4 umol/kg; 4 μmol/kg i.v.; read-out: Vz
quantity name: Vd (L/kg)

>>> observed("Cc1nnsc1C(=O)N[C@H]1CCN2c3ccc(C#N)cc3[C@@H](C)c3ccccc3[C@@H]2C1 [Org 214007-0]")
3.4

###

procedure summary: Pharmacokinetics in mice
Format: in vivo, mouse
conditions used: female, Balb/c, mouse, in vivo, po, 10 umol/kg; 10 μmol/kg p.o.; read-out: F (% bioavailability)
quantity name: bioavailability (%)

>>> observed("Cc1nnsc1C(=O)N[C@H]1CCN2c3ccc(C#N)cc3[C@@H](C)c3ccccc3[C@@H]2C1")
89.7
